SYSTEM_TESTED: T1, human VPAC2 receptor (human, UniProt P41587 24-438)
T1 construct: whole, on cells; cAMP Alpha screen assay: whole cells
T1 sequence (looked up): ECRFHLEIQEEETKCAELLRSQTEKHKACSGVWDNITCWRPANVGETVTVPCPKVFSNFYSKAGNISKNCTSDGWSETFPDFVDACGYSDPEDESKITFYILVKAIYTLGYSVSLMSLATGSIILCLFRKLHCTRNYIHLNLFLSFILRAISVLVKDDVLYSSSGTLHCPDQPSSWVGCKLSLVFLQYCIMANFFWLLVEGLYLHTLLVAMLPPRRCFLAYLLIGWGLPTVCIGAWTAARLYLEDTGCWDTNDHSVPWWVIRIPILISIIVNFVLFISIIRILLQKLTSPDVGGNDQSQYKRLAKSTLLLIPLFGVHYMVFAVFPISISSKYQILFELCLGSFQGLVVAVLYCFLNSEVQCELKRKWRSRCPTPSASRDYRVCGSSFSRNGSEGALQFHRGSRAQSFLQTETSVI
ASSAY_DETAILS: filter binding assay, human VPAC2 membranes, displacement of 125I-VIP
Square brackets hold non-standard residues; d marks the D form. Ends that are not written are not given here. Nle = CCCC[C@H](N)C(=O)O; Orn = NCCC[C@H](N)C(=O)O; Aib = CC(C)(N)C(=O)O
RECORDED_METRIC: IC50 (nM)
The reply should contain only the number, in nM.

# BINDER, NUMERIC_RESULT
measured = [
    ("HSDAVFTENYT[Orn]LR[Aib]Q[Nle]AA[Orn]KYLNDL[Orn][Orn]GGPSSGAPPPC (not fully specified (residue 39); also: cyclic, bridge type and places not given here, PEGylated, site not placed) [P376 (cyclic PEGylated VPAC2 receptor peptide agonist)]", 4.89),
]

Give the measured IC50 of HSDAVFTENYTKLRKQ[Nle]AAKKYLNDLKQGGPSSGAPPPC (also: further groups not given here) [P277 (cyclic PEGylated VPAC2 receptor peptide agonist)] .
90.9

Next record, please: HSDAVFTENYTKLR[Aib]Q[Nle]AAKKYLNDLK[Aib]KGGPSSGAPPPC (also: further groups not given here) [P348 (cyclic PEGylated VPAC2 receptor peptide agonist)]
3.54

And HSDAVFTENYTKLRKQ[Nle]AAKKYLNDLKKGGPSSGAPPPC (not fully specified (residue 39); ends and bridges not checked; also: further groups not given here) [P201 (cyclic PEGylated VPAC2 receptor peptide agonist)] ?
4.11

The measurements presented in this section are drawn from patent US20090118167A1.
